Here the recorded mass density is given for each entry.
settings: 298.15 K; 101.33 kPa; Liquid; Vibrating tube method
Report as a plain number; the unit kg/m3 is understood.

Example cases with answers are listed next.
CCCCCCn1cc[n+](C)c1.N#C[B-](C#N)(C#N)C#N [1-hexyl-3-methylimidazolium tetracyanoborate] ... 983.03
CCCCO [butan-1-ol] ... 798.06
CCCCCCCCCCCCCC[P+](CCCCCC)(CCCCCC)CCCCCC.N#C[B-](C#N)(C#N)C#N [trihexyltetradecylphosphonium tetracyanoborate] ... 891.05

Proceed to the following item.
Give recorded mass density. CCCCCCCCCCn1cc[n+](C)c1.N#C[B-](C#N)(C#N)C#N [1-decyl-3-methyl-1H-imidazolium tetracyanoborate]
955.57

Reference source: the NIST ThermoML archive (doi:10.1016/j.jct.2012.04.017)
